Measured GI50 accompanies every entry in the list below.
System: OVCAR-8
protocol-description: NCI tumour cell line growth inhibition, 48 h
Calls of active or inactive are those of the source. Rule as the data show it: active = GI50 up to about 1.1 µM and inactive = higher.

Would you please look over these solved cases?
                                item_smiles        result_value
0   CC(=O)NC1=C(NC(C)(C)C)C(=O)c2ccccc2C1=O  20.3 µM (inactive)
1  Cc1cn([C@H]2C[C@H](N=[N+]=[N-])[C@@H](CO)O2)c(=O)[nH]c1=O   180 µM (inactive)
2  COc1ccc(-c2c(C#N)c(-c3ccc(C)cc3)n(NS(=O)(=O)c3ccc(C)cc3)c(=O)c2C#N)cc1  72.3 µM (inactive)

Could you now consider this next molecule?
Task: For `Cc1cc(Cc2cc(C)c(NC(=O)C(=O)C3C(=O)NC(=S)NC3=O)c(C(C)C)c2)cc(C(C)C)c1NC(=O)C(=O)C1C(=O)NC(=S)NC1=O` , what is its reported GI50?
Output: > 100 µM (inactive)
